MEASURED_TARGET: T1, mfNPR1-mFc:hANP complex (monkey; human, UniProt P01160 124-151)
T1 construct: also called monkey NPR1 complexed to ANP
EXPERIMENT: SPR, mAb captured, 25C
The following binders are shown together with reported 100 nM Ag Bound (RU) values.
Your answer is read as RU, so omit the unit and give the number.

- BINDER: "mAb25508 (antibody, human IgG4, V domains shown) VH: EVQLVESGGGVVRPGGSLRLSCAASGFNVDDYGMSWVRQIPGKGLEWISGINWNGGRIYYADSMKGRITISRDNAKNSLYLQMNSLRAEDTALYHCVRDQWLVRGLDYWGQGTLVTVSS VL: DIQMTQSPSSLSASVGDRVTITCRASQGIYNYLAWFQQKPGKAPKSLIYAASSLQSGVPSKFSGSGSGTDFTLTISSLQPEDFATYYCQQYNTYPYTFGQGTKLEIK"
  ASSAY_VALUE: 224
- BINDER: "mAb25497 (antibody, human IgG4, V domains shown) VH: QVQLVQSGAEVKEPGASVKVSCKASGYTFTDYYIHWVRQAPGQGLEWMGWINLNSGGKNHAQKFQGRVTVTSDTSINTAYIELGRLRGDDTAVYYCSRGGGSHYYYYYHGMDVWGQGTTVTVSS VL: DIQMTQSPSSLSASVGDRITITCRASHSIDSYLNWYQQKPGKAPKLLIYPASTLQSGVPSRFSGSGSGTDFTLTISSLQPEDSAIYYCQQSYSTPLTFGGGTKVEIK"
  ASSAY_VALUE: 95
- BINDER: "mAb22033 (antibody, human IgG4, V domains shown) VH: QVQLVQSGAEVKKPGASVTVSCKASGYTFTDYYMHWVRQAPGQGLEWMGWIKPNSGGTNSAQRFQGRITMTWDTSISTAYMELSRLRSDDTAVYYCSRGGPVMNYYYYYGMDVWGQGTTVTVSS VL: NIQMTQSPSSLSASVGDRVTITCRASQSIDSYLNWYQQKPGKAPKLLIYVASSLQSGVPSRFSGSGSGKDFTLTISSLQPEDFATYYCQQSYSIPTFGQGTRLEIK"
  ASSAY_VALUE: 133

IN: Data request, read-out 100 nM Ag Bound (RU), for mAb25479 (antibody, human IgG4, V domains shown) VH: QVQLVQSGAEVKKPGASVKVSCKASGYTFTGYYIHWVRQAPGQGLEWMGWINPNSIGTNYAQKFQGRVTLTRDTSISTAYMELSSLRSDDTAVYYCARGGSSSYYYYYYGMDVWGQGTTVTVSS VL: DIQMTQSPSSLSASVGDRVTITCRASQSIDNYLNWYQQKPGKAPKLLIYVASSLQSGVPSRFSGSGSGTDFTLTISSLQPEDFATYYCQQSYSTPLTFGGGTKVEIK
OUT: 86

IN: Entry mAb22809 (antibody, human IgG4, V domains shown) VH: QLQLRESGPGLVKPSETLSLTCTVSGGSINDNSFFWDWIRQTPGRGLEWIGNIFFDGNTYYTPSLKSRVIISVDMSQNQFSLRLTSVTAADTALYYCARHKRSMTAWGFFDYWGQGTLVTVSS VL: DIQMTQSPSSLSASVGDRVTITCRASKRINTYLNWYQQKPGKAPKVLIYSASNLQSGVPSRFSGSGSGTDFTLTINSLQPEDFATYFCQQSFSAPPITFGQGTRLEIK please
OUT: 86
